Taken from paper PMC3103436.

tested on: AMPK; assay: AMPK-alpha phosphorylation immunoblot in HepG2 cells; assay type: cell-based, human; conditions: HepG2, 20 μM, 24 hrs
Measurement type: AMPK activation (AMPK-alpha phosphorylation)

{"columns": ["Molecule", "Experimental result"],
 "data": [
  ["COc1cc2c(cc1O)CC[n+]1cc3c(OC)c(OC)ccc3cc1-2 [M4, jatrorrhizine]", "not significant"],
  ["COc1ccc2cc3[n+](cc2c1OC)CCc1cc(O)c(O)cc1-3 [M3, demethyleneberberine]", "not significant"]
]}

* * *

Test system: rCYP450 isoenzymes
Test: Detection of BBR metabolites after incubation with rCYP450 isoenzymes
Format: in vitro ADME, human
Conditions: cell-free reaction, LC-MS/MS
Protocol: The incubation was performed in duplicates. The flow-rate was 0.2 ml/min. […] The MS was operated in positive ESI mode. […] Data were analyzed by Xcalibur 1.2 software.
Measurement type: Detection of metabolite after incubating BBR with rCYP450s

{"columns": ["Line notation", "Experimental result"],
 "data": [
  ["COc1ccc2cc3[n+](cc2c1O)CCc1cc2c(cc1-3)OCO2", "not detectable"],
  ["COc1c(O)ccc2cc3[n+](cc12)CCc1cc2c(cc1-3)OCO2", "detectable"],
  ["COc1cc2c(cc1O)CC[n+]1cc3c(OC)c(OC)ccc3cc1-2", "not detectable"],
  ["COc1ccc2cc3[n+](cc2c1OC)CCc1cc(O)c(O)cc1-3", "detectable"]
]}
